These measurements were taken from PubChem BioAssay AID493027.

molecular target: Perilipin-1 (Homo sapiens) + 1-acylglycerol-3-phosphate O-acyltransferase ABHD5 (Homo sapiens) (UniProt O60240+Q8WTS1); test: ABHD5-PLIN1 interaction inhibitors, pilot screen, cell lysate, split luciferase complementation, luminescence, NIH validation set (AID 493027);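 further: 0% = DMSO wells with the 100% control not disclosed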; conditions: split G. princeps luciferase complementation, 4 h; at 7.9 µM, stronger effect = higher value
Sequence (O60240 whole entry, looked up): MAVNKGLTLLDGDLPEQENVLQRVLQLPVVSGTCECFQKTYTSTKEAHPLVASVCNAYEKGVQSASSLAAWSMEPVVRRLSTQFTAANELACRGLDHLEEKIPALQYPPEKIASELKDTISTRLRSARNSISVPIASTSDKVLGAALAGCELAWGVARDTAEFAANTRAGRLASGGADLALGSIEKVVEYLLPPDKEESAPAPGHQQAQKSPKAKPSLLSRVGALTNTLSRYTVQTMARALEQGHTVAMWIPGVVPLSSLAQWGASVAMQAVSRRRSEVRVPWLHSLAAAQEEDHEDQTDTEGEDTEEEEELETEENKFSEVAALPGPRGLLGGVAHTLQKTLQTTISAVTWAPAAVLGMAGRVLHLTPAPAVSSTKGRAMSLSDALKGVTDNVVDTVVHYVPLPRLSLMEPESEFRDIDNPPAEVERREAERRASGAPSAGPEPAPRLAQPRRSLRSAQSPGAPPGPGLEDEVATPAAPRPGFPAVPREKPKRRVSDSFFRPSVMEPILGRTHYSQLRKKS
Sequence (Q8WTS1 whole entry, looked up): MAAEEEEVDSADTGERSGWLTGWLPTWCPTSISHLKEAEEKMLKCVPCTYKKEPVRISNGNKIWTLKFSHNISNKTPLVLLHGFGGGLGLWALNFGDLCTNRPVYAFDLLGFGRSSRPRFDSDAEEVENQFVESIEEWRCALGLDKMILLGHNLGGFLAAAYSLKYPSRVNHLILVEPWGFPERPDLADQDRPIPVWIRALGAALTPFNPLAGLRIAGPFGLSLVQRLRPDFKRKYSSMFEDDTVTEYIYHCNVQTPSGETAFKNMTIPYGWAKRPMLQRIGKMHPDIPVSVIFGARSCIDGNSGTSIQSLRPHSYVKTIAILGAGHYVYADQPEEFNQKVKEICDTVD
About 45 (2%) of roughly 2,000 compounds were called active. What follows is part of a selection rich in actives, with near analogues and random picks from the rest.
Form field: inhibition (one value per entry).

Compound	inhibition
Cc1ccccc1C(=O)NNc1ncnc2c1cnn2C	-10.4% (inactive)
COc1cc(C2C(C(C)=O)=C(O)C(=O)N2c2ccc(C)cc2)ccc1O (stereo unspecified)	-3.68% (inactive)
COc1ccc(CN(CCC(c2ccccc2)c2ccc(OC(C)C)cc2)C(=O)CCl)cc1OC (stereo unspecified)	64.4% (active)
O=C(O)CCn1cnc2ccccc2c1=O	3.53% (inactive)
C=CCc1ccc(OCC(O)COc2ccc(CC=C)cc2OC)c(OC)c1	-1.62% (inactive)
COc1ccccc1C(CC(=O)Nc1ccccc1C)c1ccc(OC(C)C)cc1 (stereo unspecified)	0.34% (inactive)

====

biological target: Perilipin-1 (Homo sapiens) + 1-acylglycerol-3-phosphate O-acyltransferase ABHD5 (Homo sapiens) (UniProt O60240+Q8WTS1); experiment: ABHD5-PLIN1 interaction inhibitors, pilot screen, cell lysate, split luciferase complementation, luminescence, NIH validation set (AID 493027);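 further: 0% = DMSO wells with the 100% control not disclosed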; conditions: split G. princeps luciferase complementation, 4 h; at 7.9 µM, stronger effect = higher value
About 45 (2%) of roughly 2,000 compounds were called active. The list comes from a sample in which actives are over-represented; it also holds close analogues and randomly drawn compounds.
Values of inhibition greater than or equal to 10% map to y; values below map to n.

Compound	Class assignment
COc1ccc2oc(=O)c(C(=O)N3CCN(c4ccccc4)CC3)cc2c1	n
COc1ccc(C2=CC(=O)C=CC2=O)cc1	y
COc1ccc(Cc2noc(CN(C)CC3(N4CCOCC4)CCCCC3)n2)cc1OC	n
COc1cc2cc(C)nc(Cc3cccc4ccccc34)c2cc1OC	y
COc1cccc(-n2c(C)c3c(OC)cccc(=O)c3c2C)c1	y
COc1ccc(-c2nc(NC(C)=O)sc2-c2ccc(OC)cc2)cc1	y
COc1ccc(C2C3C(C)=NN=C3CC(C)(O)C2C(C)=O)cc1 (stereo unspecified)	n
COc1ccc(C2C(=O)c3ccccc3C2=O)cc1	n
Cc1ccc(NCCC(=O)c2ccccc2)cc1Cl	n
COc1ccc(O)c(C(=O)/C=C/c2cc3ccccc3o2)c1	y
CC(CCCC(C)(C)O)NC(=O)c1ccc(OC2CCN(C(=O)C3CC3)CC2)cc1 (stereo unspecified)	n

====

target: Perilipin-1 (Homo sapiens) + 1-acylglycerol-3-phosphate O-acyltransferase ABHD5 (Homo sapiens) (UniProt O60240+Q8WTS1); test: ABHD5-PLIN1 interaction inhibitors, pilot screen, cell lysate, split luciferase complementation, luminescence, NIH validation set (AID 493027);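 further: 0% = DMSO wells with the 100% control not disclosed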; conditions: split G. princeps luciferase complementation, 4 h; at 7.9 µM, stronger effect = higher value
About 45 (2%) of roughly 2,000 compounds were called active. Many of the other results were omitted from the sample, so actives are more common in it than they were.
Assay metric: inhibition (%)

Compound	Assay metric	Units text	Reading
CCOc1cccc(N2C(=O)CC(N(CCc3ccc(OC)c(OC)c3)C(=O)CC)C2=O)c1 (configuration not stated)	inhibition	%	-6.24
CC1(C)CC(=O)c2cc(O)ccc2O1	inhibition	%	-2.35
CC(C)(C)OC(=O)N1CC(O)CC1C(=O)OCC(=O)c1ccc(Cl)cc1 (configuration not stated)	inhibition	%	-9.04
COc1cc(OC)cc(C(=O)N[C@@H](CCSC)c2nc3ccccc3[nH]2)c1	inhibition	%	2.97
Cc1cccc(OCC(=O)Nc2ccc(C(=O)NCC(C)C)cc2)c1	inhibition	%	-6.6
COc1ccc(/C=C/C(=O)c2cc3cccc(OC)c3oc2=O)cc1	inhibition	%	60.6
Oc1ccccc1OCCOc1ccccc1OCCOc1ccccc1O	inhibition	%	8.26
COc1ccc2[nH]c(C)c(CN3CCC(C)CC3)c(=O)c2c1	inhibition	%	-4.96
CCc1ccc(/C=C2\SC(=S)N(CCC(=O)N3CCN(C)CC3)C2=O)cc1	inhibition	%	-12.7
COc1cc2c(cc1OC)CN(Cc1ccc(C)s1)CC2	inhibition	%	2.36
CC(C)CCC1(CCNC(C)c2cccs2)CCOC(C)(C)C1 (configuration not stated)	inhibition	%	-4.9
COc1cccc2c(=O)c3ccccc3oc12	inhibition	%	-14.7
CCN1C(=O)C(CC(=O)Nc2ccc(F)cc2)N(Cc2ccco2)C1=S (configuration not stated)	inhibition	%	10.9
O=C(/C=C/c1ccc2c(c1)OCO2)NCc1ccc(F)cc1	inhibition	%	-2.57
O=C1ON=C(c2ccc(Cl)cc2)/C1=C/c1ccc(O)cc1	inhibition	%	82.8
Fc1ccc(-n2cc(CNCCc3ccccn3)c(-c3ccccc3Cl)n2)cc1	inhibition	%	1.9
O=C(Cc1ccccc1)NCC(=O)OCC(=O)c1ccccc1Cl	inhibition	%	-13.7
O=C1CCCCCN1Cc1ccccc1	inhibition	%	-0.49
CC(C)=CCCC(C)CN1CCC(N2CCC(C(=O)N3CCCC3)CC2)CC1 (configuration not stated)	inhibition	%	-9.96
CC(C)C1Cc2[nH]c(=O)c(C(=O)O)cc2CO1 (configuration not stated)	inhibition	%	-7.52
COc1cccc(OC2OC3COC(C)(C)OC3C(O)C2NC(C)=O)c1 (configuration not stated)	inhibition	%	-10.2
COc1ccc(C2OC(=O)Cc3cc(OC)c(OC)cc32)cc1 (configuration not stated)	inhibition	%	-1.64
COc1cccc2cc(-c3ccccc3)c(=O)oc12	inhibition	%	-3.48
COc1cc2c(cc1OC)/C(=C/c1ccc(Cl)cc1)C(=O)OC2	inhibition	%	27.4
Cc1ccc2c(c1)C(O)(CC(=O)/C=C/C=C/c1ccccc1)C(=O)N2 (configuration not stated)	inhibition	%	16.4
Cc1ccc(S(=O)(=O)N[C@@H](C)C(=O)N2CCC(C(=O)N3CCC[C@H]3C(=O)O)CC2)cc1	inhibition	%	-8.3
O=C(OCCN1CCCC1)C1(c2ccccc2)CCCC1	inhibition	%	-8.49
C[C@]12CCC3C(CC=C4C[C@@H](O)CC[C@@]43C)C1CCC2[C@]1(C)CCC(=O)O1 (some centres not stated)	inhibition	%	0.59
COc1ccc(C(=O)Nc2nc3ccccc3c(=O)[nH]2)cc1	inhibition	%	-4.92
O=C1C=CC(=O)C(C2=C3C(=O)N(CCc4ccccc4)CC(=O)N3CCC2)=C1	inhibition	%	68.9
COc1ccc(C(=O)OCc2cc3cccc(C)c3[nH]c2=O)cc1	inhibition	%	-1.47
COc1cc2c3c(c1)C1(C(=O)N3C(C)(C)C=C2C)C(C#N)=C(N)Oc2cc(C)oc(=O)c21 (configuration not stated)	inhibition	%	-0.82
O=C(O)c1ccc(C(=O)C(=O)c2ccccc2)cc1	inhibition	%	-8.11
O=C1C(Cc2ccccc2)NC(=S)N1c1ccccc1 (configuration not stated)	inhibition	%	-13.4
CC[n+]1c(C)sc2cc(C)ccc21	inhibition	%	0.88
Cc1nc(N)nc2c1CCCC2	inhibition	%	-5.16
CC(=O)/C=C/c1ccc(C)o1	inhibition	%	18.2
COc1ccc(C2C(C#N)=C(N)Oc3cc(C)[nH]c(=O)c32)c(OC)c1OC (configuration not stated)	inhibition	%	-14.5
COc1cc2c3c(c1)C(C)CC(C)(C)N3C(=O)C2=O (configuration not stated)	inhibition	%	6.69
CC1(C)C(C=C(Cl)Cl)C1C(=O)N1CCN(Cc2ccccc2)CC1 (configuration not stated)	inhibition	%	-10.6
O=C(/C=C/c1ccc2c(c1)OCO2)c1ccccn1	inhibition	%	51.3
Nc1cc(-c2ccncc2)c[nH]c1=O	inhibition	%	49
O=C(N1CCCCC1)C1(c2ccccc2)CCOCC1	inhibition	%	-5.12
Oc1[nH]c2ccccc2c1N=Nc1ccccc1	inhibition	%	-0.17
CC(C)[N+]1(C)[C@@H]2CC[C@H]1CC(OC(=O)C(CO)c1ccccc1)C2 (some centres not stated)	inhibition	%	-5.55
O=Cc1ccc(OC(=O)c2cccnc2)cc1	inhibition	%	-5.64
C[C@H](NC(=O)Nc1ccccc1F)C(=O)O	inhibition	%	-0.07

====

target: Perilipin-1 (Homo sapiens) + 1-acylglycerol-3-phosphate O-acyltransferase ABHD5 (Homo sapiens) (UniProt O60240+Q8WTS1); test: ABHD5-PLIN1 interaction inhibitors, pilot screen, cell lysate, split luciferase complementation, luminescence, NIH validation set (AID 493027);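 further: 0% = DMSO wells with the 100% control not disclosed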; details: split G. princeps luciferase complementation, 4 h; at 7.9 µM, stronger effect = higher value
Screen size: about 2,000 compounds; about 45 (2%) were called active. Only a selection was taken, and actives are over-represented in it overall.
Form field: inhibition (one value per entry).
Assay metric: inhibition (%)

Compound	Units text	Reading
COc1ccc(CCN=CC2=C(O)CC(C)(C)CC2=O)cc1	%	-4.85
CCOc1ccc(CC2CCC(=O)NC2=O)cc1 (stereo not given)	%	3.55
CCCCc1oc2ccccc2c1C(=O)c1cc(I)c(OCCN(CC)CC)c(I)c1	%	-6.98
CC(=O)CCc1oc2ccccc2c1-c1ccccc1	%	-1.83
Nc1ccc(S(N)(=O)=O)cc1N	%	1.88
